Listed next: entries and their corresponding growth.
System: UACC-62 melanoma
Assay: NCI-60 one-dose screen, 48 h (100 = growth as untreated, 0 = no growth, -100 = all killed)
Conditions: 10 µM unless noted
About 83,000 compounds went through this panel and 20% of them were active in at least one assay; those are over-represented in the sample as a whole.
// units = %; emit number, no label

Reference set, count: 5
COc1cc(NCCCN=C(N)NC(N)=NC(C)C)c2ncccc2c1 ... 90.1
O=C(Cc1c(F)cccc1Cl)Nc1ccc(S(=O)(=O)Nc2ncccn2)cc1 ... 107
COc1cc2nc(SCc3cc(OC)c(OC)c(OC)c3)n(Cc3ccccc3)c(=O)c2cc1OC ... 23.4
COc1cc(-c2n[nH]nc2-c2ccc3c(c2)OCCO3)cc(OC)c1OC ... 27
CC(=O)Oc1cccc(OC(C)=O)c1OC(C)=O ... 96.8

Request: Quick one: growth for COc1cc(C2CC(c3c(C)[n+]([O-])c4ccccc4[n+]3[O-])=NN2)cc(OC)c1OC (stereo not given) ?
Response: 105

Request: Quick one: growth for COc1ccc(NC(=O)/N=c2\oc3c(OC)cccc3cc2-c2cc3ccccc3[nH]2)cc1 ?
Response: 65.6

Request: Quick one: growth for COc1ccc2c(c1)NC(=O)CN2c1nc(NC2CC2)nc2ccccc12 ?
Response: 26.1

Request: Quick one: growth for c1ccc2c(c1)Oc1ccccc1C2C1c2ccccc2Oc2ccccc21 ?
Response: 86.7

Request: Quick one: growth for CC(C)(C)c1cn2cccc(C(=O)N3CCN(CC(=O)Nc4ccc(Cl)cc4C(=O)c4ccccc4Cl)CC3)c2n1 ?
Response: 57.6
